For each entry below, report its % survivors value.
System: Pseudomonas Aeruginosa
PROCEDURE DETAILS: Antibacterial activity in vivo with topical treatment (Table 5)
Parameters: species or system female CF1 albino mice
COND: 2% by weight, topical, 15th day
Please respond with the number in % and leave the unit unwritten.

Input line: Find the recorded % survivors belonging to CCCCCCCCCC[N+](C)(C)CCOC(=O)C12CC3CC(CC(C3)C1)C2 (single isomer, unassigned) and report it.
Output line: 80

Input line: Next: CCCCCCCCCCCC[N+](C)(C)CCOC(=O)C12CC3CC(CC(C3)C1)C2
Output line: 70

Input line: Next: CCCCCCCCCCCCCCCC[n+]1ccccc1 [Cetyl pyridine chloride, cetyl pyridine chloride, reference compound]
Output line: 40

Input line: Next: CCCCCCCCCCCC[N+](C)(C)CCNC(=O)C12CC3CC(CC(C3)C1)C2
Output line: 70
